- System name: PI3Kβ (Homo sapiens, UniProt P42338)
- Construct: purchased Carna #11-102
- Sequence (P42338 whole entry, one chain of several): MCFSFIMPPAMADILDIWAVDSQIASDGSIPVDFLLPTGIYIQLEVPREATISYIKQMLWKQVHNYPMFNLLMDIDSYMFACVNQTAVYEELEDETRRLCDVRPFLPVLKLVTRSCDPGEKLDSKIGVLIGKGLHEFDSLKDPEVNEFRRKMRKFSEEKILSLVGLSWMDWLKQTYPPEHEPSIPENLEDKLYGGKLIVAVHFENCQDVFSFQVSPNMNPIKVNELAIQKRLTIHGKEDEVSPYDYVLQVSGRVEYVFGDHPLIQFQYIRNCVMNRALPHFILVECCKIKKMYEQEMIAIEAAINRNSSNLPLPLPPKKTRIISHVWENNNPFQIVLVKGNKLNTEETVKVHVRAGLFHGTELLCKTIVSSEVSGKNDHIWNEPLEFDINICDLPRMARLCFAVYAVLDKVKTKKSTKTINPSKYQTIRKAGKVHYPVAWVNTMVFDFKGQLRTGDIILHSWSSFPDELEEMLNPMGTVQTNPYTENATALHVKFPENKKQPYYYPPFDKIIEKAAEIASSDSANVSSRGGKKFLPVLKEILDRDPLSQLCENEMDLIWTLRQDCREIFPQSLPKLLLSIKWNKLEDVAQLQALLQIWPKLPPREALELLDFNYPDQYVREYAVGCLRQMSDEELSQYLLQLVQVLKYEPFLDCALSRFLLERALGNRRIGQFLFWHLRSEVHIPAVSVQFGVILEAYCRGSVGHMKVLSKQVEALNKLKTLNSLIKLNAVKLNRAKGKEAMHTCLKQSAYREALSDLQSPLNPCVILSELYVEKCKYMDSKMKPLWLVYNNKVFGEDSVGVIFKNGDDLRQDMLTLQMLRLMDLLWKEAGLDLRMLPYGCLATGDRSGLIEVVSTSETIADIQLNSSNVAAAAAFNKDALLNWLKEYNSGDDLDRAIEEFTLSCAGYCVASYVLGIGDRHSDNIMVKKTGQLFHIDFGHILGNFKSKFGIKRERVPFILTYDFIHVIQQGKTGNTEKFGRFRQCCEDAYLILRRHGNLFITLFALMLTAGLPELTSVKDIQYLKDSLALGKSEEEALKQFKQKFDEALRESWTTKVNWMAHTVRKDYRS
- Experiment notes: ADP-Glo Lipid Kinase Assay, PI3Kβ kinase activity
- Format: biochemical
- Assay context: ratio of IC50 values
Tick Met if Selectivity of PI3Kα vs PI3Kβ is 800 or greater. Tick Not met if Selectivity of PI3Kα vs PI3Kβ is less than 800.

Input line: Check the entry "NC(=O)[C@@H]1CCCN1c1ccc2c(c1)OCCn1cc(N3C(=O)SC[C@H]3C(F)F)nc1-2" : does Selectivity of PI3Kα vs PI3Kβ equal or exceed 800?
Output line: Not met

Input line: Check the entry "C[C@H](Nc1ccc2c(c1F)OCCn1cc(N3C(=O)SC[C@H]3C(F)F)nc1-2)C(N)=O" : does Selectivity of PI3Kα vs PI3Kβ equal or exceed 800?
Output line: Not met

Input line: Check the entry "C[C@H](Nc1ccc2c(c1)OCCn1cc(N3C(=O)O[C@H](C)[C@H]3C(F)F)nc1-2)C(N)=O" : does Selectivity of PI3Kα vs PI3Kβ equal or exceed 800?
Output line: Met

Input line: Check the entry CC(Nc1ccc2c(c1)OCCn1cc(N3C(=O)OC(C)[C@H]3C(F)F)nc1-2)C(N)=O (stereo in doubt) : does Selectivity of PI3Kα vs PI3Kβ equal or exceed 800?
Output line: Met

----------
- System name: PI3Kδ (Homo sapiens, UniProt O00329)
- Construct: purchased Carna #11-103
- Sequence (O00329 whole entry): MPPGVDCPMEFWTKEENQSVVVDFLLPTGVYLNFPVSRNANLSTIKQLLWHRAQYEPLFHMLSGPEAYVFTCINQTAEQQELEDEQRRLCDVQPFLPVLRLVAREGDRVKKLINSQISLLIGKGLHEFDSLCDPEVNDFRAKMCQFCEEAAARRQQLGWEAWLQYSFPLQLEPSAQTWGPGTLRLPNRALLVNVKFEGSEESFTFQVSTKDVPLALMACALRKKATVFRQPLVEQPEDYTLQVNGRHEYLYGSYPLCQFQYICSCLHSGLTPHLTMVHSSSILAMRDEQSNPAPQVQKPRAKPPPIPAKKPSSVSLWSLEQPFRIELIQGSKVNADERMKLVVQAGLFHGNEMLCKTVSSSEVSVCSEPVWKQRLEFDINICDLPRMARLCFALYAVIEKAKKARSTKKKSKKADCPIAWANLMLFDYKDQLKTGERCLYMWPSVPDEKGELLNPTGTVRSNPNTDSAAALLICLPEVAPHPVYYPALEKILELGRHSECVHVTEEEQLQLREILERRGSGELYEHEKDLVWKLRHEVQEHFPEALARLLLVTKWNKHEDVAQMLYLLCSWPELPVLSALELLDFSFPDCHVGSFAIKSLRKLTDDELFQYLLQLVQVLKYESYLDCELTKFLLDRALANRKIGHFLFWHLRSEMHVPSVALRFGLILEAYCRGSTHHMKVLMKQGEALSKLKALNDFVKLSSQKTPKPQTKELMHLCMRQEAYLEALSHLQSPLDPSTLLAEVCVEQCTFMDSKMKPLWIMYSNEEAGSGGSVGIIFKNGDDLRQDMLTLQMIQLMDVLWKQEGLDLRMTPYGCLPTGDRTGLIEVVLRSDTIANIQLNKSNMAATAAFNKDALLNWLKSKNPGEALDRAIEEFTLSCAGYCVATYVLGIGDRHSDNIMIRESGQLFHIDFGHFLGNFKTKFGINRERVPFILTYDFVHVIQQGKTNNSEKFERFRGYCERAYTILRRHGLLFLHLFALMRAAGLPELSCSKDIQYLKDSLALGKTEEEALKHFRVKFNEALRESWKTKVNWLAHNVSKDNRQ
- Sequence (P27986 whole entry partner): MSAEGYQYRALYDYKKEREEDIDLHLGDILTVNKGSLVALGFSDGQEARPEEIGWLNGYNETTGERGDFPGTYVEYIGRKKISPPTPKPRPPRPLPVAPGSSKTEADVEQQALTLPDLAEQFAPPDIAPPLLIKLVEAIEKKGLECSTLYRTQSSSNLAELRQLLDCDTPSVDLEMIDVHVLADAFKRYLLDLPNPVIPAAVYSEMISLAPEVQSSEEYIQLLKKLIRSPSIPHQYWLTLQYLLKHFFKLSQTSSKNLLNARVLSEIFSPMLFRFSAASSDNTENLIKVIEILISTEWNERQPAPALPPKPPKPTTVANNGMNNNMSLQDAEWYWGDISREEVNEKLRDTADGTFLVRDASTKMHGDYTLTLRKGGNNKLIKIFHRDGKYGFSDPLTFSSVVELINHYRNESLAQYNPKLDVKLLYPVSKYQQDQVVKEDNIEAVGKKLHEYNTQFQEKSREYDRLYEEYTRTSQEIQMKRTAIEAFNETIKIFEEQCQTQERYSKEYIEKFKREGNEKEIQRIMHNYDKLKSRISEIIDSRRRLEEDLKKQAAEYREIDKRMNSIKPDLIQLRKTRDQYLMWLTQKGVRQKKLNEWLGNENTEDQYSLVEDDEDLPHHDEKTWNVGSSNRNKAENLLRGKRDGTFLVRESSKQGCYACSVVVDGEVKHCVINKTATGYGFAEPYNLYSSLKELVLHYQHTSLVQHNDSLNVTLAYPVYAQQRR
- Experiment notes: ADP-Glo Lipid Kinase Assay, PI3Kδ kinase activity
- Assay type: biochemical
- Assay context: ratio of IC50 values
- Method: In this experiment, ADP-Glo Lipid Kinase Assay (Promega #V9102) from Promega was used. The lipid kinases PI3Kα/β/γ/δ catalyzed the ATP-to-ADP reaction in the presence of the substrate PIP2:3PS and ATP. […] Kinase reactions were carried out in white 384-well plates (Perkin Elmer #6007299). […] After the reaction was carried out for 20 minutes at room temperature in the dark, the chemiluminescence was measured by BioTek Synergy H1 microplate reader. […]
Tick fulfilled if Selectivity of PI3Kα vs PI3Kδ is 50 or greater. Tick not fulfilled if Selectivity of PI3Kα vs PI3Kδ is less than 50.

Examples from the recorded data:
> print(dat)
                                   compound                           system.name    class.label
1  NC(=O)[C@@H]1CCCN1c1ccc2c(c1)OCCn1cc(N3C(=O)SC[C@H]3C(F)F)nc1-2 [Example 53]  PI3Kδ (Homo sapiens, UniProt O00329)  not fulfilled
2  C[C@H](Nc1ccc2c(c1)OCCn1cc(N3C(=O)O[C@H](C)[C@H]3C(F)F)nc1-2)C(N)=O [Example 25]  PI3Kδ (Homo sapiens, UniProt O00329)      fulfilled
3  CC(C)[C@H](Nc1ccc2c(c1)OCCn1cc(N3C(=O)OC[C@H]3C(F)F)nc1-2)C(N)=O [Example 14]  PI3Kδ (Homo sapiens, UniProt O00329)      fulfilled

Input line: Check the entry C[C@H](Nc1ccc2c(c1)OCCn1c-2nc(N2C(=O)OC[C@H]2C(F)F)c1F)C(N)=O [Example 1] : does Selectivity of PI3Kα vs PI3Kδ equal or exceed 50?
Output line: fulfilled

Input line: Check the entry C[C@H](Nc1ccc2c(c1)N(C)CCn1cc(N3C(=O)OC[C@H]3C(F)F)nc1-2)C(N)=O [Example 56] : does Selectivity of PI3Kα vs PI3Kδ equal or exceed 50?
Output line: fulfilled
